# melting point annotations

Study these solved cases before continuing.
COc1ccc2nc3ccccc3c(NCc3ccc(Cl)cc3)c2c1; 178 to 180 °C
COc1ccc(CNc2c3ccccc3nc3ccc(OC)cc23)cc1; 168 to 170 °C
COc1cccc(CNc2c3ccccc3nc3ccccc23)c1; 107 to 109 °C

Enquiry: Which melting point value is on record for COc1ccc(CNc2c3ccccc3nc3ccccc23)c(OC)c1 ?
Return: 170 to 172 °C

Enquiry: May I ask what melting point has been recorded for COc1ccc(CNc2c3ccccc3nc3ccccc23)cc1 ?
Return: 116 to 118 °C

###

# System: MDA-MB-468
# experimentSummary: NCI-60 one-dose screen
# Type: cell-based
# testContext: Homo sapiens; MDA-MB-468, Breast Cancer panel; single dose 10^−5 M; read-out: Growth inhibition %
# Experimental: The newly synthesized compounds were screened for their in vitro anticancer activity at the Developmental Therapeutic Program (DTP) of the National Cancer Institute (NCI). The screening involved a panel of 60 human tumor cell lines consisting of 9 tissue types to screen for potential anti-cancer agents. The primary screening of submitted compounds was performed by testing a single dose (10^−5 M) in the full NCI-60 panel. […]
observedProperty: inhibition at 10 µM (%)
Quick reminder: number only, in %, skip the unit.

Recorded results for 2 molecules are shown here.
COc1ccc2nc3ccccc3c(NCc3ccc(F)cc3)c2c1 [Compound 28]; 124
Cc1ccc2nc3ccccc3c(NCc3ccc(Cl)cc3)c2c1 [Compound 31]; 122

Enquiry: Which measured inhibition at 10 µM value corresponds to COc1ccccc1CNc1c2ccccc2nc2ccccc12 [Compound 5, Acridin-9-yl-(2-methoxybenzyl)-amine] ?
Return: 71.7

Enquiry: Entry Fc1ccc(CNc2c3ccccc3nc3ccccc23)cc1 [Compound 10, Acridin-9-yl-(4-fluorobenzyl)-amine] has what inhibition at 10 µM?
Return: 88.5

###

# Tested on: MDA-MB-468
# experimentSummary: NCI-60 one-dose screen
# Format: cell-based
# testContext: Homo sapiens; MDA-MB-468, Breast Cancer panel; single dose 10^−5 M; read-out: Growth inhibition %
Below, each of the molecules is paired with its reported inhibition at 10 µM value.

c1coc(CNc2c3ccccc3nc3ccccc23)c1; 70.7%
Clc1cccc(CNc2c3ccccc3nc3ccccc23)c1; 118%

Enquiry: Bench note: what inhibition at 10 µM did COc1ccc(CNc2c3ccccc3nc3ccccc23)cc1 show?
Return: 72.9%

Enquiry: Which inhibition at 10 µM reading was recorded for the molecule Fc1cccc(CNc2c3ccccc3nc3ccccc23)c1F ?
Return: 78%

###

# reported melting point; entries follow

Enquiry: Item Clc1ccc(CNc2c3ccccc3nc3ccccc23)cc1 has what recorded melting point?
Return: 145 to 147 °C

Enquiry: May I ask what melting point has been recorded for c1ccc(CCNc2c3ccccc3nc3ccccc23)cc1 ?
Return: 151 to 153 °C

Enquiry: Need melting point of COc1cccc(CNc2c3ccccc3nc3ccccc23)c1OC , thanks.
Return: 175 to 177 °C

###

# Test system: SW-620
# experimentSummary: NCI-60 one-dose screen
# Type: cell-based
# testContext: Homo sapiens; SW-620, Colon Cancer panel; single dose 10^−5 M; read-out: Growth inhibition %
Please enter 1 where inhibition at 10 µM is greater than or equal to 80%, and 0 where it is lower.

Enquiry: Tell me whether inhibition at 10 µM is at least 80% here: COc1ccc(CNc2c3ccccc3nc3ccccc23)cc1F
Return: 1

###

# Tested on: SNB-19
# experimentSummary: NCI-60 one-dose screen
# Type: cell-based
# testContext: Homo sapiens; SNB-19, CNS Cancer panel; single dose 10^−5 M; read-out: Growth inhibition %
observedProperty: inhibition at 10 µM (%)
Could you give me the number in %? Just the number is fine.

Previously resolved entries follow.
COc1ccc2nc3ccccc3c(NCc3ccc(C)cc3)c2c1; 70.8
Cc1cccc(CNc2c3ccccc3nc3ccccc23)c1; 70.3
COc1ccc(CNc2c3ccccc3nc3ccccc23)cc1F; 72

Enquiry: Give its inhibition at 10 µM value. Item: Cc1ccc(CNc2c3ccccc3nc3ccccc23)cc1
Return: 70.3

Enquiry: Entry under review: Cc1ccc2nc3ccccc3c(NCc3ccccc3)c2c1 . Reported inhibition at 10 µM?
Return: 68.2

###

# Tested on: MDA-MB-231/ATCC
# experimentSummary: NCI-60 one-dose screen
# Type: cell-based
# testContext: Homo sapiens, Breast Cancer panel, single dose 10^−5 M, read-out: Growth inhibition %
observedProperty: inhibition at 10 µM (%)
Just the number please, in %, no unit attached.

Check out these entries, answers already filled in.
Fc1ccccc1CNc1c2ccccc2nc2ccccc12 [Compound 8, Acridin-9-yl-(2-fluorobenzyl)-amine]; 46
Cc1ccccc1CNc1c2ccccc2nc2ccccc12 [Compound 2, Acridin-9-yl-(2-methylbenzyl)-amine]; 60.1
Fc1ccc(CNc2c3ccccc3nc3ccccc23)cc1F [Compound 22, Acridin-9-yl-(3,4-difluorobenzyl)-amine]; 65.2
COc1cccc(CNc2c3ccccc3nc3ccccc23)c1OC [Compound 16, Acridin-9-yl-(2,3-dimethoxybenzyl)-amine]; 58.1
c1coc(CNc2c3ccccc3nc3ccccc23)c1 [Compound 14, Acridin-9-yl-furan-2-ylmethyl-amine]; 39.5

Enquiry: Consider the compound COc1ccc2nc3ccccc3c(NCc3ccc(F)cc3)c2c1 [Compound 28] and give its measured inhibition at 10 µM.
Return: 83.3

Enquiry: Using the record for Fc1cccc(CNc2c3ccccc3nc3ccccc23)c1 [Compound 9, Acridin-9-yl-(3-fluorobenzyl)-amine] , report its inhibition at 10 µM.
Return: 69.4

Enquiry: Item Cc1cccc(CNc2c3ccccc3nc3ccccc23)c1 [Compound 3, Acridin-9-yl-(3-methylbenzyl)-amine] has what recorded inhibition at 10 µM?
Return: 61.3

Enquiry: Query: inhibition at 10 µM; subject: COc1ccc2nc3ccccc3c(NCc3ccc(C)cc3)c2c1 [Compound 26]
Return: 66.4

Enquiry: For the compound shown here, Cc1ccc(CNc2c3ccccc3nc3ccccc23)cc1 [Compound 4, Acridin-9-yl-(4-methylbenzyl)-amine] , give the reported inhibition at 10 µM.
Return: 56.8

Enquiry: Param item = COc1ccc(CNc2c3ccccc3nc3ccccc23)cc1F [Compound 19] ; retrieve measured inhibition at 10 µM.
Return: 70.8

###

# Tested on: HCT-116
# experimentSummary: MTT cell proliferation assay, HCT-116
# testContext: read-out: IC50 μM, 72 h MTT, means ± SD, three experiments
Kindly apply the following: Y if IC50 is less than 4 µM, N in every other case.

Example cases with answers are listed next.
Cc1ccc(CNc2c3ccccc3nc3ccccc23)cc1; Y
COc1ccc2nc3ccccc3c(NCc3ccc(F)cc3)c2c1; Y
COc1ccc2nc3ccccc3c(NCc3ccccc3)c2c1; N
Fc1ccc(CNc2c3ccccc3nc3ccccc23)cc1F; N
Cc1ccc2nc3ccccc3c(NCc3ccc(Cl)cc3)c2c1; N

Enquiry: Is 4 µM strictly greater than the molecule's reported IC50? molecule: c1ccc(CNc2c3ccccc3nc3ccccc23)cc1
Return: Y

Enquiry: Item Clc1cccc(CNc2c3ccccc3nc3ccccc23)c1 : IC50 beneath 4 µM, strictly?
Return: N

Enquiry: Is it true that IC50 reported for N.N.[Cl][Pt][Cl] [cisplatin, reference compound] is less than 4 µM?
Return: Y

Enquiry: Please determine if Cc1ccc2nc3ccccc3c(NCc3ccccc3)c2c1 is below 4 µM in terms of IC50.
Return: N

Enquiry: Would you kindly verify if IC50 of Clc1ccccc1CNc1c2ccccc2nc2ccccc12 is strictly less than 4 µM?
Return: N

###

# Tested on: NCI-H522
# experimentSummary: NCI-60 one-dose screen
# Type: cell-based
# testContext: Homo sapiens; NCI-H522, Non-small cell lung panel; single dose 10^−5 M; read-out: Growth inhibition %
observedProperty: inhibition at 10 µM (%)
Output spec: scalar in %, unitless text.

Some compounds with recorded inhibition at 10 µM:
COc1cccc(CNc2c3ccccc3nc3ccccc23)c1; 38.3
Fc1ccc(CNc2c3ccccc3nc3ccccc23)cc1; 47.6
Clc1ccc(CNc2c3ccccc3nc3ccccc23)cc1; 33.5
Clc1cccc(CNc2c3ccccc3nc3ccccc23)c1; 58.3
Fc1ccc(CNc2c3ccccc3nc3ccccc23)cc1F; 63

Could you now look at the following compound, please?
Enquiry: Find the recorded inhibition at 10 µM belonging to Clc1ccccc1CNc1c2ccccc2nc2ccccc12 and report it.
Return: 71.5

###

Each record here notes measured inhibition at 10 µM.
# Tested on: HS 578T
# experimentSummary: NCI-60 one-dose screen
# Assay type: cell-based
# testContext: Homo sapiens, Breast Cancer panel, single dose 10^−5 M, read-out: Growth inhibition %
# Protocol: The newly synthesized compounds were screened for their in vitro anticancer activity at the Developmental Therapeutic Program (DTP) of the National Cancer Institute (NCI). The screening involved a panel of 60 human tumor cell lines consisting of 9 tissue types to screen for potential anti-cancer agents. The primary screening of submitted compounds was performed by testing a single dose (10^−5 M) in the full NCI-60 panel. […]
The answer consists of two parts: a number and, after it, its unit.

Study these solved cases before continuing.
Clc1ccccc1CNc1c2ccccc2nc2ccccc12; 50%
Fc1ccccc1CNc1c2ccccc2nc2ccccc12; 30.9%
Cc1ccc2nc3ccccc3c(NCc3ccc(Cl)cc3)c2c1; 22.2%

Here is another compound to look at.
Enquiry: So what does the record say about inhibition at 10 µM for Cc1ccc2nc3ccccc3c(NCc3ccccc3)c2c1 ?
Return: 30.2%

Where do the numbers come from? From paper PMC9866191.
